// provenance: PubChem BioAssay

target: Dickkopf-related protein 1 (Homo sapiens) (UniProt O94907); assay: DKK1 binders on small-molecule microarrays, primary screen, biochemical, small-molecule microarray, 635 nm fluorescence scan (AID 1106); conditions: DKK1 binding, higher = more signal;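 note: score merges emission near 667 nm with signal to noise over three replicate slides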
Sequence (O94907 whole entry, looked up): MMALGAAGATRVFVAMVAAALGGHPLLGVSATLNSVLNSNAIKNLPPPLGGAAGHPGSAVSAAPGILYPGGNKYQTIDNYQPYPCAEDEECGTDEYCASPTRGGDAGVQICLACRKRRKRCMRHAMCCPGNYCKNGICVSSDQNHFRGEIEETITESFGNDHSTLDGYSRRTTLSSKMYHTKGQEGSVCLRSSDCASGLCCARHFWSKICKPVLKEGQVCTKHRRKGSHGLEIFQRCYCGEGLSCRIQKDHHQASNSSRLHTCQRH
Collected composite z-score values appear next to each entry.
Enter a number only.

COc1cc2c(cc1O)C(c1ccc(CN3CCCC3)cc1)N(C)CC2 (centres undefined); -0.622
[N-]=[N+]=NCc1ccccc1C[C@@]1(C(=O)N2CCCCC2)N=C(c2ccc(OCCCO)cc2)O[C@@H]1c1ccccc1CN=[N+]=[N-]; 0.287
O=C1OCCC/C=C\[C@H]2OC34C=CCN(c5ccc6ccccc6c5)C(=O)[C@H]3N(CCCO)C(=O)[C@@H]4C12 (some centres undefined); -1.31

# evaluate next
## Input Give composite z-score (Dickkopf-related protein 1 (Homo sapiens) (UniProt O94907)) of the following compound: CCCCCN1CC=CC23O[C@@H]4C=CCOC(=O)[C@@H]4[C@H]2C(=O)N(CCO)[C@@H]3C1=O (some centres undefined)
## Output -1.25

====

Collected composite z-score values appear next to each entry.
assay: binders of probe aFGF2 on microarray, primary screen, stem cell growth factor project, biochemical, small-molecule microarray, fluorescence 635/667 (AID 1067); conditions: higher = more signal;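 note: measures binding of biotinylated aFGF2 protein to printed compounds on slides; z-score merges feature fluorescence and signal-to-noise across triplicate slides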
Enter a number only.

Below are worked cases with known answers.
CCOC(=O)C1=CCN(S(=O)(=O)c2ccc(C)cc2)C1c1ccccc1 (centres undefined); -0.0232
O=C(O)[C@H]1C[C@H]2C(=O)N[C@@H](Cc3ccccc3)C(=O)N2[C@H]1c1cccc(OCCO)c1; -0.0246
CCOC(=O)C=Cc1ccccc1O; -0.0156

# evaluate next
## Input Look up composite z-score: `CCOC(=O)C1=C[C@@H](C(C)(C)C)N(S(=O)(=O)c2ccc(C)cc2)[C@H]1c1cccc(Cl)c1`
## Output 0.0526

====

experiment: small-molecule microarray binders of probe aEGFR, primary screen, biochemical, biotinylated probe, 635/667 nm fluorescence (AID 1097); conditions: higher = more signal;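 note: probe is a biotinylated anti-EGFR antibody binding compounds printed on slides; score combines fluorescence near 667 nm and signal to noise of each spot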
readout.label: composite z-score
Enter a number only.

COCCOC(=O)N1C(=O)[C@@]2(c3ccccc31)[C@H](c1ccccc1OCCO)N1[C@H](c3ccccc3)[C@H](c3ccccc3)OC(=O)[C@H]1[C@@H]2C(=O)N1CCCCCCC1; 1.48
COC(=O)C(CC#Cc1ccc2c(c1)[C@]1(C(=O)N2)[C@H](c2ccc(O)cc2)N2[C@H](c3ccccc3)[C@H](c3ccccc3)OC(=O)[C@H]2[C@@H]1C(=O)N1CCCCCCC1)C(=O)OC; 0.804
C=C(CCCC)C(=O)CC[C@H](OC(=O)c1ccccc1-c1ccccc1C(=O)O)c1ccccc1OCCO; -0.162

## Input Look up composite z-score: `COCCOC(=O)N1C(=O)[C@@]2(c3cc(C#CCCO)ccc31)[C@H](C(N)=O)[C@H]1C(=O)O[C@H](c3ccccc3)[C@H](c3ccccc3)N1[C@@H]2c1ccc(OCCO)cc1`
## Output 0.0754

====

Collected composite z-score values appear next to each entry.
molecular target: Neurogenic locus notch homolog protein 2 (Homo sapiens) (UniProt Q04721); test: Notch2 binders on small-molecule microarrays, primary screen, biochemical, small-molecule microarray, 635 nm fluorescence, stem cell growth factors (AID 1073); details: Notch2 binding, higher = more signal
Sequence (Q04721 whole entry, looked up): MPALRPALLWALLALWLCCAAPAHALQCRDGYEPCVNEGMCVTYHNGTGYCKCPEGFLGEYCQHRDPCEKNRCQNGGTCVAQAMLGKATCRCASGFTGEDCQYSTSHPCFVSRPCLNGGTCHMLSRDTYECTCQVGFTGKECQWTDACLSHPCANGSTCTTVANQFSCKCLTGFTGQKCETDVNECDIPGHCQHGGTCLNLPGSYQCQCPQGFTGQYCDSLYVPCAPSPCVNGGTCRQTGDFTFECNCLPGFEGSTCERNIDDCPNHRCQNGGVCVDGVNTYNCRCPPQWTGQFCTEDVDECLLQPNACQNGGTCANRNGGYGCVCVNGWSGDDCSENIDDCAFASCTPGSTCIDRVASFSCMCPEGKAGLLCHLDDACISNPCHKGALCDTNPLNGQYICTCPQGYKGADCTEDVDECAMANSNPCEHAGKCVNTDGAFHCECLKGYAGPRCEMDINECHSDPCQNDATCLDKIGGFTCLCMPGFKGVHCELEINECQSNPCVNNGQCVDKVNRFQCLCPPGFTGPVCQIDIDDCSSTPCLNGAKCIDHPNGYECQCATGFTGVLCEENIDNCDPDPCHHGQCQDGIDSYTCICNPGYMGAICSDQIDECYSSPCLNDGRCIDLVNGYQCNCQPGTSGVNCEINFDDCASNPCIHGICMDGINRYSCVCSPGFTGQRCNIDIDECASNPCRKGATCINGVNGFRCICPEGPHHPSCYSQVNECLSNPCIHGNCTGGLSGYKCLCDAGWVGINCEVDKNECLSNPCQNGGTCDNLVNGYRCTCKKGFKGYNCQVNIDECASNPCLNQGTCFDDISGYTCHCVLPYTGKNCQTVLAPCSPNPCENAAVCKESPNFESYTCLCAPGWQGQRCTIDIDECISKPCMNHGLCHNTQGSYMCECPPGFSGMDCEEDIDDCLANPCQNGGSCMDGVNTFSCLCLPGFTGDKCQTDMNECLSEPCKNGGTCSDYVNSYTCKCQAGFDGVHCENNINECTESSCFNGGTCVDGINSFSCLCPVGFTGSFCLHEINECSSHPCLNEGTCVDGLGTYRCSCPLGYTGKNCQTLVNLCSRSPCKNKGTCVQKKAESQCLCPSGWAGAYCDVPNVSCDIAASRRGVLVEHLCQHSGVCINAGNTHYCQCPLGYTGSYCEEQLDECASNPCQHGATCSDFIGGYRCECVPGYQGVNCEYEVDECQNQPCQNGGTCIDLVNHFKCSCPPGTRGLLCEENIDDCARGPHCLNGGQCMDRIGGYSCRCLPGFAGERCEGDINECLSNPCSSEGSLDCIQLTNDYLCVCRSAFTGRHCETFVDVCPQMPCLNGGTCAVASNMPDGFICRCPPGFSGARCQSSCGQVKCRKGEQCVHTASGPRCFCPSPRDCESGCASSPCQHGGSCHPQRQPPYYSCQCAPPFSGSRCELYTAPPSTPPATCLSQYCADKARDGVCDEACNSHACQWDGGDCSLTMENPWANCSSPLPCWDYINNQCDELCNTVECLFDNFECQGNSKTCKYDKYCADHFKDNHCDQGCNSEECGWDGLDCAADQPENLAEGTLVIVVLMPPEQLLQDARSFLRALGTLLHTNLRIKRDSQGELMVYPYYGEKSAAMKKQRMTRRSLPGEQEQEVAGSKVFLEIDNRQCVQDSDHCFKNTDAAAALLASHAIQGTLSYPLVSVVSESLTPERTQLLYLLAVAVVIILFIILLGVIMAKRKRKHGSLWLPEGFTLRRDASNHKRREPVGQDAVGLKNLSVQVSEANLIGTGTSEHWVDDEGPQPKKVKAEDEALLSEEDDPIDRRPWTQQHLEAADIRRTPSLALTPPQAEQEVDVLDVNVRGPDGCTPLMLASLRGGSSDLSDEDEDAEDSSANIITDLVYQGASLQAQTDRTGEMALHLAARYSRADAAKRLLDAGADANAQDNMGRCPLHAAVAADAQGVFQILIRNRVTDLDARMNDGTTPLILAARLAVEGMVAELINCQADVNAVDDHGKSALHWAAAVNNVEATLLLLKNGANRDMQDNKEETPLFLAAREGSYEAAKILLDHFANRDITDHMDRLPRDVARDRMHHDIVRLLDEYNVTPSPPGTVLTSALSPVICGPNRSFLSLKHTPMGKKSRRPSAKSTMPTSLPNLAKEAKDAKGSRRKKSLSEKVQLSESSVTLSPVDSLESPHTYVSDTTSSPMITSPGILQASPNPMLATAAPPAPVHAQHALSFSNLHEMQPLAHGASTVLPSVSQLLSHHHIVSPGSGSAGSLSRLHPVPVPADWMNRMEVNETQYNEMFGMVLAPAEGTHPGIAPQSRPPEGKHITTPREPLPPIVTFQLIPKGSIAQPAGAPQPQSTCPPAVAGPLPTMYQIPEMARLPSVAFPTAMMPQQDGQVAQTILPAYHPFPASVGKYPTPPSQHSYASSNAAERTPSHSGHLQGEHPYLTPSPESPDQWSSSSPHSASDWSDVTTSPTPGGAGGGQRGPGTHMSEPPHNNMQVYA
Enter a number only.

## Input Look up composite z-score: `[N-]=[N+]=NCc1ccccc1C[C@@]1(C(=O)N2CCCCC2)N=C(c2ccc(OCCCO)cc2)O[C@@H]1c1ccccc1CN=[N+]=[N-]`
## Output 1.14

## Input Same for `C=CCNC(=O)[C@H]1[C@@H]2C(=O)O[C@@H](c3ccccc3)[C@@H](c3ccccc3)N2[C@@H](c2ccc(OCCO)cc2)[C@]12C(=O)Nc1ccc(C#CCNC(N)=O)cc12`
## Output 0.112

## Input Same for `COc1ccc(C#Cc2ccc3c(c2)[C@]2(C(=O)N3)[C@H](C(=O)N3CCCCCCC3)[C@H]3C(=O)O[C@H](c4ccccc4)[C@H](c4ccccc4)N3[C@@H]2c2ccc(O)cc2)cc1`
## Output 0.97
